Exercise: for every item that follows, state its recorded Emax.
Target: P-glycoprotein (ABCB1) (Homo sapiens, UniProt P08183)
Experiment: Inhibition of P-glycoprotein in human doxorubicin-resistant K562 cells assessed as maximal increase of pirarubicin accumulation by spectrofluorometric analysis relative to control
Type: cell-based
Conditions: probe pirarubicin

q: Lab note: need Emax with P-glycoprotein (ABCB1) (Homo sapiens, UniProt P08183) for entry COc1cc(/C=C/C(=O)O[C@H]2CC[C@H](N(C)[C@H]3CC[C@H](OC(=O)c4cc(OC)c(OC)c(OC)c4)CC3)CC2)cc(OC)c1OC , please look it up.
a: 81%

q: Request: COc1cc(/C=C/C(=O)O[C@H]2CC[C@@H](N(C)[C@H]3CC[C@@H](OC(=O)C4c5ccccc5-c5ccccc54)CC3)CC2)cc(OC)c1OC
a: 90%

q: And what about the compound COc1cc(CCC(=O)O[C@H]2CC[C@@H](N(C)[C@H]3CC[C@H](OC(=O)c4cc(OC)c(OC)c(OC)c4)CC3)CC2)cc(OC)c1OC (mixture of isomers) ?
a: 77%

q: Also COc1cc(C#CC(=O)O[C@H]2CC[C@@H](N(C)[C@H]3CC[C@H](OC(=O)C4c5ccccc5-c5ccccc54)CC3)CC2)cc(OC)c1OC (mixture of isomers) ?
a: 96%

q: Next compound up: COc1cc(/C=C/C(=O)O[C@H]2CC[C@@H](N(C)[C@H]3CC[C@@H](OC(=O)c4cc(OC)c(OC)c(OC)c4)CC3)CC2)cc(OC)c1OC
a: 80%

q: Entry to check: COc1cc(/C=C/C(=O)O[C@H]2CC[C@H](N(C)[C@H]3CC[C@H](OC(=O)C4c5ccccc5-c5ccccc54)CC3)CC2)cc(OC)c1OC
a: 94%

###

Target: ATP-dependent translocase ABCB1 (Homo sapiens)
Experiment: Inhibition of P-glycoprotein in human doxorubicin-resistant K562 cells assessed as half maximal increase of pirarubicin accumulation by spectrofluorometric analysis
Answer each item with its documented IC50.
# unit: nM | format: bare number

q: Provide value of IC50 for this record tested with ATP-dependent translocase ABCB1 (Homo sapiens): COc1cc(/C=C/C(=O)O[C@H]2CC[C@@H](N(C)[C@H]3CC[C@H](OC(=O)C4c5ccccc5-c5ccccc54)CC3)CC2)cc(OC)c1OC (mixture of isomers)
a: 80

q: Next record, please: COc1cc(C#CC(=O)O[C@H]2CC[C@@H](N(C)[C@H]3CC[C@H](OC(=O)C4c5ccccc5-c5ccccc54)CC3)CC2)cc(OC)c1OC (mixture of isomers)
a: 120

q: COc1ccc(C(C(=O)O[C@H]2CC[C@@H](N(C)[C@H]3CC[C@@H](OC(=O)C#Cc4cc(OC)c(OC)c(OC)c4)CC3)CC2)c2ccc(OC)cc2)cc1 (mixture of isomers) ?
a: 120

###

Molecular target: ATP-dependent translocase ABCB1 (Homo sapiens, UniProt P08183)
Sequence (P08183 whole entry): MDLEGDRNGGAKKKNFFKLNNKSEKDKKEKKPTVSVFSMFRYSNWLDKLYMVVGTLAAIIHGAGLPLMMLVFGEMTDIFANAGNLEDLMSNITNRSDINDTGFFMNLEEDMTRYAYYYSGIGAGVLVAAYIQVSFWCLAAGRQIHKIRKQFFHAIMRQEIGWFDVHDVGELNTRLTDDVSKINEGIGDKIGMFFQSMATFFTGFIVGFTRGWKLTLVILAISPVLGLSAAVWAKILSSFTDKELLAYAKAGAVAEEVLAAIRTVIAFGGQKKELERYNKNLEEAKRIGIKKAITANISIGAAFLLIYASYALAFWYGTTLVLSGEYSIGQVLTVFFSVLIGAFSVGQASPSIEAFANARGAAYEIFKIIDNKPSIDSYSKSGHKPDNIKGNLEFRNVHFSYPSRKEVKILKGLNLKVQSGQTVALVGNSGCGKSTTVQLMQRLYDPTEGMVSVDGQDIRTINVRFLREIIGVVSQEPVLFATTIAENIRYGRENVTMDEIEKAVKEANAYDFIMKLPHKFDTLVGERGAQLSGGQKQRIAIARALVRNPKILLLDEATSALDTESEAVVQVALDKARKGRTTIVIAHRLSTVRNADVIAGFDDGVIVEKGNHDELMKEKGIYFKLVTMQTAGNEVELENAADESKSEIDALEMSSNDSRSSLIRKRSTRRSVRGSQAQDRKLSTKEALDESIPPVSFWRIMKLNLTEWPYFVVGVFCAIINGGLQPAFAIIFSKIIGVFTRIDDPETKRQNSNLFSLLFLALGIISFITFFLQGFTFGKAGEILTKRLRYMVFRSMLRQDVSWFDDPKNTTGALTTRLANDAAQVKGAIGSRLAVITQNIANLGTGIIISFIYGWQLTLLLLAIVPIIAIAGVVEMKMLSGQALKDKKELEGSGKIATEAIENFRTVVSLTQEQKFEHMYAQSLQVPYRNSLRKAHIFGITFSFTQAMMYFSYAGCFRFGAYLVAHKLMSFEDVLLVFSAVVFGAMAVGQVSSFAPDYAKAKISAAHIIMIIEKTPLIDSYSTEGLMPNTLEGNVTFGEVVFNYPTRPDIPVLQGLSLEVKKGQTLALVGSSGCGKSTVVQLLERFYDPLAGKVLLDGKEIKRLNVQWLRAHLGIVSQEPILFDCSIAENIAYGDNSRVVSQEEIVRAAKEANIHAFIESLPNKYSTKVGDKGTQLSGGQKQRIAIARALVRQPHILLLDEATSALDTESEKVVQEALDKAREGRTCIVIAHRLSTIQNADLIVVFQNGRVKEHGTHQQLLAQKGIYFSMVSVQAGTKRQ
Experiment: Inhibition of P-glycoprotein in human doxorubicin-resistant K562 cells assessed as half maximal increase of pirarubicin accumulation by spectrofluorometric analysis
Format: cell-based
propertyLabel: pIC50
Note on pIC50: it is the negative log10 of concentration, concentration in mol/L.

q: Field request: pIC50 | item: COc1ccc(C(C(=O)O[C@H]2CC[C@@H](N(C)[C@H]3CC[C@H](OC(=O)C#Cc4cc(OC)c(OC)c(OC)c4)CC3)CC2)c2ccc(OC)cc2)cc1 (mixture of isomers)
a: 7.70

q: Repeat for the following compound: COc1cc(CCC(=O)O[C@H]2CC[C@@H](N(C)[C@H]3CC[C@H](OC(=O)c4cc(OC)c(OC)c(OC)c4)CC3)CC2)cc(OC)c1OC (mixture of isomers)
a: 6.46

q: And COc1cc(/C=C/C(=O)O[C@H]2CC[C@@H](N(C)[C@H]3CC[C@H](OC(=O)c4cc(OC)c(OC)c(OC)c4)CC3)CC2)cc(OC)c1OC ?
a: 7.92

q: Input COc1cc(/C=C/C(=O)O[C@H]2CC[C@@H](N(C)[C@H]3CC[C@@H](OC(=O)c4cc(OC)c(OC)c(OC)c4)CC3)CC2)cc(OC)c1OC
a: 7.52

q: Same again, this time with COc1cc(C#CC(=O)O[C@H]2CC[C@@H](N(C)[C@H]3CC[C@H](OC(=O)c4cc(OC)c(OC)c(OC)c4)CC3)CC2)cc(OC)c1OC (mixture of isomers)
a: 7.70

q: Here is the next compound: COc1cc(C#CC(=O)O[C@H]2CC[C@H](N(C)[C@H]3CC[C@H](OC(=O)C4c5ccccc5-c5ccccc54)CC3)CC2)cc(OC)c1OC
a: 6.30

###

Target: ATP-dependent translocase ABCB1 (Homo sapiens)
Assay: Inhibition of P-glycoprotein in human doxorubicin-resistant K562 cells assessed as half maximal increase of pirarubicin accumulation by spectrofluorometric analysis
propertyLabel: pIC50
pIC50 here: minus log base 10 of the concentration, concentration in moles per litre.

q: Fill blank: measured pIC50 of the compound COc1cc(/C=C/C(=O)O[C@H]2CC[C@H](N(C)[C@H]3CC[C@H](OC(=O)C4c5ccccc5-c5ccccc54)CC3)CC2)cc(OC)c1OC is ____.
a: 7.12

q: Please do the same for COc1cc(CCC(=O)O[C@H]2CC[C@H](N(C)[C@H]3CC[C@H](OC(=O)c4cc(OC)c(OC)c(OC)c4)CC3)CC2)cc(OC)c1OC as well.
a: 6.21

q: Also check COc1cc(C#CC(=O)O[C@H]2CC[C@@H](N(C)[C@H]3CC[C@@H](OC(=O)c4cc(OC)c(OC)c(OC)c4)CC3)CC2)cc(OC)c1OC
a: 7.15

q: Another compound to check: COc1cc(C#CC(=O)O[C@H]2CC[C@H](N(C)[C@H]3CC[C@H](OC(=O)c4cc(OC)c(OC)c(OC)c4)CC3)CC2)cc(OC)c1OC
a: 7.15
